Recorded viability values for a group of compounds are listed next.
Assay: reversal of MRP1-mediated doxorubicin resistance, pilot screen, H69AR cells, doxorubicin co-treatment (AID 601)
Condition notes: H69AR cells + 2 uM doxorubicin, CellTiter-Glo, 72 h; measured here: viability with 2 uM doxorubicin; at 10 µM; stronger effect = lower value
Give the quantity in %, number only.

Check out these entries, answers already filled in.
>>> reported_measurement("CCCSc1nnc(-c2ccccc2NC(=O)CC)c(=O)[nH]1")
88.1
>>> reported_measurement("COc1nc2ccc(C)cc2cc1-c1noc(-c2cccnc2)n1")
91.9
>>> reported_measurement("COc1cccc(-c2cc(C(=O)Nc3c(C)nn(Cc4ccccc4)c3C)no2)c1")
89.5

Query :: Field request: viability | item: `O=C(COc1ccccc1Cl)OCC(=O)N1CCN(S(=O)(=O)c2ccccc2)CC1`
Result :: 89.2

Query :: Field request: viability | item: CC(C)Cc1ccc(C(C)C(=O)O)cc1 (stereo not drawn)
Result :: 92.3

Query :: Field request: viability | item: `COc1ccc(-c2nnnn2C)cc1S(=O)(=O)NCc1ccccc1`
Result :: 91.1

Query :: Field request: viability | item: Cc1[nH]n(C(N)=S)c(=O)c1C(c1ccccc1)C(C#N)C#N (stereo not drawn)
Result :: 92.4

Query :: Field request: viability | item: `COc1ccc(CCn2c(N)c(C#N)c3nc4ccccc4nc32)cc1OC`
Result :: 89.6

* * *

Assay: HUVEC growth inhibition – cell-based, human, primary screen (AID 575);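 note: 100% = median of untreated cell wells with 0.1% DMSO on each plate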
Condition notes: HUVEC proliferation, CellTiter-Glo luminescence, 72 h; at 10 µM; stronger effect = lower value
Observable: viability (%)
Give the quantity in %, number only.

Check out these entries, answers already filled in.
>>> reported_measurement("O=C(CN1C(=O)NC2(CCCCC2)C1=O)Nc1ccc(S(=O)(=O)N2CCOCC2)cc1")
98.3
>>> reported_measurement("Cc1[nH]c2ccccc2c1Cc1nnc(SCC(=O)NCc2ccco2)o1")
97.5
>>> reported_measurement("CCn1c(SCC(=O)N2c3ccccc3CCc3ccccc32)nc2c1c(=O)n(C)c(=O)n2C")
92.5
>>> reported_measurement("O=c1c2[nH]c3ccc(Cl)cc3c2ncn1Cc1ccccn1")
107
>>> reported_measurement("COCCCNC(=O)C1CCN(C(=O)Nc2ccc(Cl)cc2)CC1")
92.2
>>> reported_measurement("N#Cc1cc2ccc(N3CCOCC3)cc2cc1C#N")
4.27

Query :: Field request: viability | item: `O=C1[C@@H]2C(c3ccccc3Cl)=NO[C@@H]2C(=O)N1Cc1ccccc1`
Result :: 116

Query :: Field request: viability | item: CCCSC1=C(C#N)C(c2ccccc2OCC)CC(=O)N1 (centres undefined)
Result :: 79

Query :: Field request: viability | item: `CCSc1nnc(NC(=O)c2ccccn2)s1`
Result :: 18.4

Query :: Field request: viability | item: CC(C)Cn1cc(C(=O)NCC2CCCO2)c2c3ccccc3n(C)c2c1=O (centres undefined)
Result :: 104

Query :: Field request: viability | item: `CCOC(=O)N1CCN(c2cc3[nH]c(=S)[nH]c3cc2F)CC1`
Result :: 100

* * *

Assay: 384-well plate pilot, post-Golgi transport modulator project, inhibition of yeast transport mutant growth (AID 636)
Condition notes: absorbance 615 nm, about 18 h, stronger effect = higher value
Calls of active or inactive are those of the source. No stated cut-off is given here; in the data, active means inhibition above about 31%; inactive means the rest.
Recorded inhibition values for a group of compounds are listed next.

>>> reported_measurement("O=C(NCc1ccc2c(c1)OCO2)C1CCC(CNS(=O)(=O)c2ccccc2)CC1 (stereo not given)")
"0.52% (inactive)"
>>> reported_measurement("O=C(CCn1c(=O)oc2ccccc21)N1CCCCCC1")
"0.95% (inactive)"
>>> reported_measurement("CCOC(=O)C1CCCN(c2nc3ccccc3nc2C(C#N)C(=O)NCc2ccccc2)C1 (stereo not given)")
"-3.95% (inactive)"

Consider the record given below.
Query :: Field request: inhibition | item: `CCOC(=O)Cn1c(CN2CCOCC2)nc2c1c(=O)[nH]c(=O)n2C`
Result :: -3.72% (inactive)
